System: Hepatitis C virus
assay.procedure: Antiviral activity against HCV replication infected in human HuH7 cells after 96 hrs by replicon assay in presence of 10% FCS
Type: functional, organism-based, Hepacivirus hominis, Huh-7
run.parameters: Hepatitis C virus, Huh-7, 96 h
metric: EC50 (nM)

{"compound": "C=CCNC(=O)C(=O)[C@H](CCC)NC(=O)[C@@H]1C[C@@H]2CN1C(=O)[C@H](C(C)(C)C)NC(=O)OCCCCCCc1cccc3c1CN(C3)C(=O)O2", "meas.value": 550}

A. CCC[C@H](NC(=O)[C@@H]1C[C@@H]2CN1C(=O)[C@H](C(C)(C)C)NC(=O)OCCCCCCc1cccc3c1CN(C3)C(=O)O2)C(=O)C(=O)NC(C)CC (stereo not given in full)
B. CCC[C@H](NC(=O)[C@@H]1C[C@@H]2CN1C(=O)[C@H](C(C)(C)C)NC(=O)OCCCCCCc1cccc3c1CN(C3)C(=O)O2)C(=O)C(=O)NC1CCCC1
Which gives the smaller EC50 number: A or B ? // output: label of the selected item
A
(A: 520 nM, B: 1050 nM)

====

assay.procedure: Inhibition of full length HCV NS3/4A protease by TRF assay
Design: species or system Hepacivirus hominis
pKi: −log10 of the molar value.
metric: pKi

{"compound": "CCC[C@H](NC(=O)[C@@H]1C[C@@H]2CN1C(=O)[C@H](C(C)(C)C)NC(=O)OCCCCCCc1cccc3c1CN(C3)C(=O)O2)C(=O)C(=O)NCc1ccccn1", "pKi": 6.75}
{"compound": "C=CCNC(=O)C(=O)[C@H](CCC)NC(=O)[C@@H]1C[C@@H]2CN1C(=O)[C@H](C(C)(C)C)NC(=O)OCCCCCCc1cccc3c1CN(C3)C(=O)O2", "pKi": 7.15}

A. CCC[C@H](NC(=O)[C@@H]1C[C@@H]2CN1C(=O)[C@H](C(C)(C)C)NC(=O)OCCCCCCc1cccc3c1CN(C3)C(=O)O2)C(=O)C(=O)NC(C)c1ccccc1 (stereo not given in full)
B. CCC(C)NC(=O)C(=O)C(CC(F)F)NC(=O)[C@@H]1C[C@@H]2CN1C(=O)[C@H](C(C)(C)C)NC(=O)OCCCCCCc1cccc3c1CN(C3)C(=O)O2 (single isomer, unassigned; diastereomer 1)
Which gives the smaller pKi number: A or B ? // output: label of the selected item
B

====

assay.procedure: Drug level in Wistar rat liver at 5 mg/kg, po after 4 hrs
Type: ADME, organism-based
Set-up: dose 5 mg/kg, route oral
run.parameters: read-out: Drug uptake
metric: concentration at 4 h (nM)

I. CCC[C@H](NC(=O)[C@@H]1[C@H]2CCC[C@H]2CN1C(=O)[C@@H](NC(=O)[C@@H](NC(=O)c1cnccn1)C1CCCCC1)C(C)(C)C)C(=O)C(=O)NC1CC1
II. C=CCNC(=O)C(=O)[C@H](CCC)NC(=O)[C@@H]1C[C@@H]2CN1C(=O)[C@H](C(C)(C)C)NC(=O)OCCCCCCc1cccc3c1CN(C3)C(=O)O2
Hi, I'm comparing I with II and wondering which one has the bigger number for concentration at 4 h. Any idea? // output: label of the selected item
I
(I: 810 nM, II: 480 nM)

====

assay.procedure: AUC (0 to infinity) in Wistar rat plasma at 5 mg/kg, po
Format: ADME, organism-based
Set-up: time infinity, dose 5 mg/kg, route oral
metric: AUC(0-inf) (µM·h)

1. C=CCNC(=O)C(=O)[C@H](CCC)NC(=O)[C@@H]1C[C@@H]2CN1C(=O)[C@H](C(C)(C)C)NC(=O)OCCCCCCc1cccc3c1CN(C3)C(=O)O2
2. CCC[C@H](NC(=O)[C@@H]1[C@H]2CCC[C@H]2CN1C(=O)[C@@H](NC(=O)[C@@H](NC(=O)c1cnccn1)C1CCCCC1)C(C)(C)C)C(=O)C(=O)NC1CC1
3. CC(C)(C)NC(=O)N[C@H](C(=O)N1C[C@H]2[C@@H]([C@H]1C(=O)NC(CC1CCC1)C(=O)C(N)=O)C2(C)C)C(C)(C)C (stereo partly drawn)
// TODO: order the 3 compounds above by AUC(0-inf), descending Sort the labels as requested; that list is your answer.
2, 1, 3

====

Test system: Hepatitis C virus
assay.procedure: Antiviral activity against HCV replication infected in human HuH7 cells after 72 hrs by replicon assay in presence of 5% FCS
run.parameters: Huh-7, 72 h
metric: EC50 (nM)
Write the number in nM without appending the unit.

Field request: EC50 | item: CC(C)(C)NC(=O)N[C@H](C(=O)N1C[C@H]2[C@@H]([C@H]1C(=O)NC(CC1CCC1)C(=O)C(N)=O)C2(C)C)C(C)(C)C (stereo partly specified)
200

====

assay.procedure: Cmax in Wistar rat at 5 mg/kg, po
Format: ADME, organism-based
Parameters: dose 5 mg/kg, route oral
run.parameters: in vivo
metric: Cmax (nM)

{"compound": "CC(C)(C)NC(=O)N[C@H](C(=O)N1C[C@H]2[C@@H]([C@H]1C(=O)NC(CC1CCC1)C(=O)C(N)=O)C2(C)C)C(C)(C)C (some centres not stated)", "scale.unit": "nM", "Cmax": 130}
{"compound": "C=CCNC(=O)C(=O)[C@H](CCC)NC(=O)[C@@H]1C[C@@H]2CN1C(=O)[C@H](C(C)(C)C)NC(=O)OCCCCCCc1cccc3c1CN(C3)C(=O)O2", "scale.unit": "nM", "Cmax": 160}

====

Tested on: Hepatitis C virus
assay.procedure: Antiviral activity against HCV replication infected in human HuH7 cells after 96 hrs by replicon assay in presence of 10% FCS
Assay type: functional, organism-based, Hepacivirus hominis, Huh-7
run.parameters: Hepatitis C virus, Huh-7, 96 h
pEC50: −log10 of the molar value.
metric: pEC50

{"test.smiles": "CCC[C@H](NC(=O)[C@@H]1C[C@@H]2CN1C(=O)[C@H](C(C)(C)C)NC(=O)OCCCCCCc1cccc3c1CN(C3)C(=O)O2)C(=O)C(=O)NCc1ccccn1", "pEC50": 6.10}
{"test.smiles": "CCC[C@H](NC(=O)[C@@H]1[C@H]2CCC[C@H]2CN1C(=O)[C@@H](NC(=O)[C@@H](NC(=O)c1cnccn1)C1CCCCC1)C(C)(C)C)C(=O)C(=O)NC1CC1", "pEC50": 5.80}
{"test.smiles": "CCC[C@H](NC(=O)[C@@H]1C[C@@H]2CN1C(=O)[C@H](C(C)(C)C)NC(=O)OCCCCCCc1cccc3c1CN(C3)C(=O)O2)C(=O)C(=O)NC1CCC1", "pEC50": 6.03}

P. CCC[C@H](NC(=O)[C@@H]1C[C@@H]2CN1C(=O)[C@H](C(C)(C)C)NC(=O)OCCCCCCc1cccc3c1CN(C3)C(=O)O2)C(=O)C(=O)NCc1ccccc1
Q. CCC[C@H](NC(=O)[C@@H]1C[C@@H]2CN1C(=O)[C@H](C(C)(C)C)NC(=O)OCCCCCc1cccc3c1CN(C3)C(=O)O2)C(=O)C(=O)NC1CC1
Which gives the smaller pEC50 number: P or Q ? // output: label of the selected item
P

====

assay.procedure: Oral bioavailability in Wistar rat at 5 mg/kg
Type: ADME, organism-based
run.parameters: in vivo
metric: bioavailability (%)

P. CCC[C@H](NC(=O)[C@@H]1[C@H]2CCC[C@H]2CN1C(=O)[C@@H](NC(=O)[C@@H](NC(=O)c1cnccn1)C1CCCCC1)C(C)(C)C)C(=O)C(=O)NC1CC1
Q. CC(C)(C)NC(=O)N[C@H](C(=O)N1C[C@H]2[C@@H]([C@H]1C(=O)NC(CC1CCC1)C(=O)C(N)=O)C2(C)C)C(C)(C)C (some centres not stated)
Hi, I'm comparing P with Q and wondering which one has the bigger number for bioavailability. Any idea? // output: label of the selected item
P
(P: 34.8%, Q: 3.5%)

====

assay.procedure: Inhibition of full length HCV NS3/4A protease by TRF assay
Parameters: species or system Hepacivirus hominis
pKi: −log10 of the molar value.
metric: pKi

Solved cases below.
{"compound": "CCC[C@H](NC(=O)[C@@H]1[C@H]2CCC[C@H]2CN1C(=O)[C@@H](NC(=O)[C@@H](NC(=O)c1cnccn1)C1CCCCC1)C(C)(C)C)C(=O)C(=O)NC1CC1", "metric": "pKi", "meas.value": 6.96}
{"compound": "CCC[C@H](NC(=O)[C@@H]1C[C@@H]2CN1C(=O)[C@H](C(C)(C)C)NC(=O)OCCCCCCc1cccc3c1CN(C3)C(=O)O2)C(=O)C(=O)NC1CCCC1", "metric": "pKi", "meas.value": 7.11}
{"compound": "CCC[C@H](NC(=O)[C@@H]1C[C@@H]2CN1C(=O)[C@H](C(C)(C)C)NC(=O)OCCCCCCc1cccc3c1CN(C3)C(=O)O2)C(=O)C(=O)NC(C)CC (some centres not stated)", "metric": "pKi", "meas.value": 7.18}

P. CCC[C@H](NC(=O)[C@@H]1C[C@@H]2CN1C(=O)[C@H](C(C)(C)C)NC(=O)OCCCCCc1cccc3c1CN(C3)C(=O)O2)C(=O)C(=O)NC1CC1
Q. CCC[C@H](NC(=O)[C@@H]1C[C@@H]2CN1C(=O)[C@H](C(C)(C)C)NC(=O)OCCCCCCc1cccc3c1CN(C3)C(=O)O2)C(=O)C(=O)NC1CCC1
R. CCC[C@H](NC(=O)[C@@H]1C[C@@H]2CN1C(=O)[C@H](C(C)(C)C)NC(=O)OCCCCCCc1cccc3c1CN(C3)C(=O)O2)C(=O)C(=O)NCc1ccccc1
// sort entries: pKi, high to low Sort the labels as requested; that list is your answer.
P, Q, R
(P: 7.08, Q: 6.85, R: 6.62)
